- system tested: T1, hIL-18Rα ECD-Fc fusion protein (human, UniProt Q13478 22-329)
- T1 construct: extracellular domain; captured on Protein A sensor
- T1 sequence (looked up): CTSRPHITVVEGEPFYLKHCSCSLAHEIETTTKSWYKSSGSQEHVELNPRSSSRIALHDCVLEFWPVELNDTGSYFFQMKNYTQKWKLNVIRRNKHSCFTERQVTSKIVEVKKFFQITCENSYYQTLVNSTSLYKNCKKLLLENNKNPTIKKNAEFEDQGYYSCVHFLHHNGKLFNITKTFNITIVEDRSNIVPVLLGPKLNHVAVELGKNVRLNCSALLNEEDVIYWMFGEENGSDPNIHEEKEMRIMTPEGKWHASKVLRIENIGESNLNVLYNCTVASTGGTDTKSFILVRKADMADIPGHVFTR
- experiment: BLI (Octet RED96), hIL-18Rα ECD-Fc on Protein A sensor
pKd overview
Quick note: pKd means taking -log10 of the concentration in moles per liter.

Below, 2 binders whose answers are already recorded.
binder	measured parameter	experimental result
IL-18 variant polypeptide M1 (ligand) YFPKLKSKLSVIRNLNDQVLFIDQGNRPLFEDMTDSDCRDNAPRTIFIISMYKHSDRRGMAVTISVKCEKISTLSCENKIISFKEMNPPDVIKDTKSDIIFFQVSVPGHDNKMQFESSSYEGYFLACEKERDLFKLILKKEDELGDRSIMFTVQNED	pKd	5.69
IL-18 variant polypeptide M26 (ligand) YFPKLRSKLSVIRNLNDQVLFIDQGNRPLFEDMTDSDCRDNAPRTIFIISMYKHSDKRGMAVTISVKCEKISTLSCENKIISFKEMNPPDVIKDTKSDIIFFQYSVPGHDNKMQFESSSYEGYFLACEKERDLFKLILKKEDELGDRSIMFTVQNED	pKd	7.24

query: Request the reported pKd associated with IL-18 variant polypeptide LM2 (ligand, soluble, E. coli-made) YFPKLRSKLSVIRNLNDQVLFIDQGNRPLFEDMTDSDCRDNAPRTIFIISMYKLSGSRGMAVTISVKCEKISTLSCENKIISFKEMNPPDVIKDTKSDIIFFQRSVPGHDNKMQFESSSYEGYFLACEKERDLFKLILKKEDELGDRSIMFTVQNED
result: 7.42

query: pKd lookup needed for IL-18 variant polypeptide M10 (ligand) YFPKLRSKLSVIRNLNDQVLFIDQGNRPLFEDMTDSDCRDNAPRTIFIISMYKQSLWRGMAVTISVKCEKISTLSCENKIISFKEMNPPDSIKDTKSDIIFFQRSVPGHDNKMQFESSSYEGYFLACEKERDLFKLILKKEDELGDRSIMFTVQNED , thanks.
result: 7.31
